tested on: Fibroblast growth factor receptor 3 (Homo sapiens, UniProt P22607)
Sequence (P22607 whole entry): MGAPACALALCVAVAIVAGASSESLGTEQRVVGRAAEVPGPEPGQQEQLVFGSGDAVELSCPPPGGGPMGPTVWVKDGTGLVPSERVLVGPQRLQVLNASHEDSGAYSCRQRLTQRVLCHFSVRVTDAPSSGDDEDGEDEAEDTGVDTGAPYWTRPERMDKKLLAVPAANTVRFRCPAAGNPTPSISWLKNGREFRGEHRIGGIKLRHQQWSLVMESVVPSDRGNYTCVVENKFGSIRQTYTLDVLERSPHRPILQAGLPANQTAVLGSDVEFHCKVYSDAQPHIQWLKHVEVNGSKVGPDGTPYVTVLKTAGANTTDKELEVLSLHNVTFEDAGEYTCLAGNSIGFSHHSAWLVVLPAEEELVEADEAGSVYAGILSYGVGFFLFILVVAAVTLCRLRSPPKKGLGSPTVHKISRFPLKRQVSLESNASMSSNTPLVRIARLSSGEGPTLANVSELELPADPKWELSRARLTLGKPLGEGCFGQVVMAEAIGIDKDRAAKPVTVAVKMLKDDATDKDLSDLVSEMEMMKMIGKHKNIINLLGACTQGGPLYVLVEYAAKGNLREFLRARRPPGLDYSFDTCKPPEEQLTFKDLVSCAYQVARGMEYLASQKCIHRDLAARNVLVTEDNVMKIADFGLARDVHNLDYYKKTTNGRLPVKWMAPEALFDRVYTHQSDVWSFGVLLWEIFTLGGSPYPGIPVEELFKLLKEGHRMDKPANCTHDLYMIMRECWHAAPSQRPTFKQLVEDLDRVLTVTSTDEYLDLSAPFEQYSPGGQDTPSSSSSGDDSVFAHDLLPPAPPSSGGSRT
experimental readout: IC50 (nM)
State just the number; it will be interpreted in nM.

>>> recorded_number("CN1C(=O)[C@@H](N2CCc3cn(CC4CCS(=O)(=O)CC4)nc3C2=O)COc2ccccc21 [TP-030n]")
1000

As a next step, examine the compound that follows.
Write down the reported IC50 of CN1C(=O)[C@@H](N2CCc3cn(Cc4ccccc4)nc3C2=O)COc2ccccc21 , test system: Fibroblast growth factor receptor 3 (Homo sapiens, UniProt P22607).
1000

---

For Death-associated protein kinase 1 (Homo sapiens), measured IC50 is reported for the entries below.
State just the number; it will be interpreted in nM.

>>> recorded_number("CN1C(=O)[C@@H](N2CCc3cn(Cc4ccccc4)nc3C2=O)COc2ccccc21 [TP-030-1]")
1000

Now for another entry.
Query IC50 on Death-associated protein kinase 1 (Homo sapiens) for CN1C(=O)[C@@H](N2CCc3cn(CC4CCS(=O)(=O)CC4)nc3C2=O)COc2ccccc21 [TP-030n]
Sequence (P53355 whole entry): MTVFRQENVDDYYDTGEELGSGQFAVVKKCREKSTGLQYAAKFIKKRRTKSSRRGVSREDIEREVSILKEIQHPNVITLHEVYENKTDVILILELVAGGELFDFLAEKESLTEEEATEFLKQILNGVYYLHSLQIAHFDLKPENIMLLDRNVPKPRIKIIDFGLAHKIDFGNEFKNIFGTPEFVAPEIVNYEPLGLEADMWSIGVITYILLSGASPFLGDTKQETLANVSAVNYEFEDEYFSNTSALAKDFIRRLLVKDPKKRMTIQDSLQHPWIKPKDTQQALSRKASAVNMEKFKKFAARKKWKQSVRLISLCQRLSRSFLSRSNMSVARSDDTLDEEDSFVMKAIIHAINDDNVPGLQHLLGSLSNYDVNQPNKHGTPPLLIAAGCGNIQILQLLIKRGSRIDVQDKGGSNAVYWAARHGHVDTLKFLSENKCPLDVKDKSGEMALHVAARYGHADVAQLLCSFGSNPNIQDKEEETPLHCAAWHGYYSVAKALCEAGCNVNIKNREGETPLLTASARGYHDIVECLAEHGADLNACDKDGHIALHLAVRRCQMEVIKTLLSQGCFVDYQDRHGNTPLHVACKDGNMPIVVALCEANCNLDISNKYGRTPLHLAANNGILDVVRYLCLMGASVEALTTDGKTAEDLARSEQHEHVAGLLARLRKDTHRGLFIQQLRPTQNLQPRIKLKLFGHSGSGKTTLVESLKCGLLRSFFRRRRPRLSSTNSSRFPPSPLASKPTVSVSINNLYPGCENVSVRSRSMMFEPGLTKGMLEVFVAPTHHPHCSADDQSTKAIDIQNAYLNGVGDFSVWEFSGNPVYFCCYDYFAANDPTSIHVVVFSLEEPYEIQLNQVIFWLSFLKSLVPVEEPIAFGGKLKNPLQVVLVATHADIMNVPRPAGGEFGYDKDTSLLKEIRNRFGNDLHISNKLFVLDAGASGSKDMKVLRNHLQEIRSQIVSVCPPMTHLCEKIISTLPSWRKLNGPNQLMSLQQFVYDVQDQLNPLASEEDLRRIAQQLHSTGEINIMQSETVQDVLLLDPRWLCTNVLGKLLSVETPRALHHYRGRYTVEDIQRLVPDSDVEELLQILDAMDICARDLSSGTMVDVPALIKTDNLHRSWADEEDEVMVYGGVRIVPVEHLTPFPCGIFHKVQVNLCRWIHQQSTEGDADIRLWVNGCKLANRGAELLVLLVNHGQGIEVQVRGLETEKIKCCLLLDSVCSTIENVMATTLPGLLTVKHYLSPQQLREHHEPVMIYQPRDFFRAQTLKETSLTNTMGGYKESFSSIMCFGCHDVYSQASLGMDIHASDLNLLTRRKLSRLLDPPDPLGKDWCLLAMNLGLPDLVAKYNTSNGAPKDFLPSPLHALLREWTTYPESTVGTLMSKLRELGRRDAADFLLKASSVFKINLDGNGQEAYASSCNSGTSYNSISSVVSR
1000
